Assay System: Replicase polyprotein 1a (Severe acute respiratory syndrome-related coronavirus) (UniProt P0C6U8)
Method Notes: Inhibition of SARS coronavirus His-3C-like protease at 100 uM
Entries and their measured inhibition follow.
Observable: inhibition (%)

INSERT INTO measurements (structure_as_smiles, observable, comparison_operator, meas_value) VALUES
  ('CC(=O)N[C@H](C(=O)N[C@H](C(=O)N[C@@H](CC(C)C)C(=O)N[C@@H](C[C@@H]1CCNC1=O)C(=O)c1cccs1)[C@@H](C)OCc1ccccc1)C(C)C', 'inhibition', '<', 10),
  ('O=C(Nc1ccc(F)cn1)c1cccs1', 'inhibition', '<', 10),
  ('CC(=O)N[C@H](C(=O)N[C@H](C(=O)N[C@@H](CC(C)C)C(=O)N[C@@H](Cc1ccccc1)C(=O)Cn1[nH]c(=O)c2ccccc2c1=O)[C@@H](C)OCc1ccccc1)C(C)C', 'inhibition', '=', 72),
  ('O=C(Oc1cncc(Cl)c1)c1ccoc1', 'inhibition', '=', 89),
  ('O=Cc1cscn1', 'inhibition', '=', 36),
  ('O=C(Cc1cccnc1)c1cccs1', 'inhibition', '<', 10);

###

Assay System: UniProt P0C6U8
Method Notes: Inhibition of SARS coronavirus 3C-like protease at 1 uM
inhibition values by entry
Observable: inhibition (%)

INSERT INTO measurements (structure_as_smiles, meas_value) VALUES
  ('COc1cccc(C(=O)Oc2cncc(Cl)c2)c1', 97),
  ('O=C(Oc1cncc(Cl)c1)c1ccc(-c2ccc(Cl)cc2)o1', 98),
  ('O=C(Oc1cncc(Cl)c1)c1cc2ccccc2[nH]1', 99),
  ('O=C(Oc1cncc(Cl)c1)c1cc2ccccc2s1', 96),
  ('O=C(Oc1cncc(Br)c1)c1ccco1', 98),
  ('O=C(Oc1cncc(Cl)c1)c1cscn1', 98);

###

Assay System: Replicase polyprotein 1a (Severe acute respiratory syndrome-related coronavirus, UniProt P0C6U8)
pIC50: −log10 of the molar value.
# reported pIC50; entries follow
Observable: pIC50

INSERT INTO measurements (structure_as_smiles, observable, meas_value) VALUES
  ('O=C(Oc1cncc(Cl)c1)c1ccco1', 'pIC50', 7.22),
  ('O=C(Oc1cncc(Cl)c1)c1cscn1', 'pIC50', 6.57),
  ('O=C(Oc1cncc(Br)c1)c1ccco1', 'pIC50', 7.30),
  ('O=C(Oc1cncc(Cl)c1)c1cc2ccccc2o1', 'pIC50', 6.77),
  ('O=C(Oc1cncc(Cl)c1)c1ccc(-c2ccc(Cl)cc2)o1', 'pIC50', 7.20),
  ('O=C(Oc1cncc(Cl)c1)c1cc2ccccc2[nH]1', 'pIC50', 7.19),
  ('O=C(Oc1cncc(Cl)c1)c1cc2ccccc2s1', 'pIC50', 7.02);

###

A collection of molecules and their measured inhibition
Assay System: Replicase polyprotein 1a (Severe acute respiratory syndrome-related coronavirus) (UniProt P0C6U8)
Method Notes: Inhibition of SARS coronavirus His-3C-like protease at 100 uM
Observable: inhibition (%)

INSERT INTO assay_data (structure_as_smiles, observable, comparison_operator, meas_value) VALUES
  ('O=Cc1cccs1', 'inhibition', '<', 10),
  ('Cc1ncccc1OC(=O)c1cccs1', 'inhibition', '<', 10),
  ('O=C(Oc1ccccn1)c1cccs1', 'inhibition', '=', 13),
  ('Cc1cccc(OC(=O)c2cccs2)n1', 'inhibition', '=', 38),
  ('O=C(Oc1cncc(Cl)c1)c1ccccc1', 'inhibition', '=', 92),
  ('O=Cc1ccco1', 'inhibition', '=', 23),
  ('O=C(Cc1cncc(Br)c1)c1ccco1', 'inhibition', '<', 10);
